experiment: log P by HPLC on reversed phase columns (Method L0); details: HPLC on reversed phase columns, Method L0
outcome_measure: logP (Method L0)
Number only, please.

Asked: Query (molecule): O=C(N[C@H]1CCOc2ccccc21)c1cnc2c(-c3cc(Cl)cc(Cl)c3)cccc2c1N1CC2COCC(C1)O2 [Example 301] ; field requested: logP (Method L0)
Given back: 3.3

Asked: Entry under review: CN(c1c(C(=O)N[C@H]2CCOc3ccccc32)cnc2c(-c3ccccc3Cl)cccc12)C1CC1 [Example 252] . Reported logP (Method L0)?
Given back: 2.23

Asked: Return reported logP (Method L0); argument: CCOP(=O)(CN(C)c1c(C(=O)N[C@H]2CCOc3ccccc32)cnc2c(-c3cc(Cl)cc(Cl)c3)cccc12)OCC [Example 285]
Given back: 4.62

Asked: Using the record for CCCNc1c(C(=O)N[C@H]2CCOc3ccccc32)cnc2c(-c3cc(Cl)cc(Cl)c3)cccc12 [Example 184] , report its logP (Method L0).
Given back: 3

----------
test: log P by HPLC on reversed phase columns (Method L0); details: HPLC on reversed phase columns, Method L0
Attribute: logP (Method L0)^[a]
Lab note: record just the number, no unit beside it.

# annotated cases, reported logP (Method L0)^[a] shown
| compound | result |
| --- | --- |
| Cn1c(=O)n(C)n(-c2c(C(=O)N[C@H]3CCOc4ccccc43)cnc3c(-c4cccc(Cl)c4Cl)cccc23)c1=O [Example 321] | 3.37 |
| CCS(=O)(=O)c1c(C(=O)N[C@H]2CCOc3ccccc32)cnc2c(-c3cc(Cl)cc(Cl)c3)cccc12 [Example 371] | 4.54 |
| CC[S+]([O-])c1c(C(=O)N[C@H]2CCOc3ccccc32)cnc2c(-c3cc(Cl)cc(Cl)c3)cccc12 (stereo partly shown) [Example 370] | 4.44 |

Now examine the next entry.
Asked: Reported logP (Method L0)^[a] for O=C(N[C@H]1CCOc2ccccc21)c1cnc2c(-c3cc(Cl)cc(Cl)c3)cccc2c1C1CC1 [Example 358] : what is it?
Given back: 4.9

----------
Items are presented alongside their recorded logP (Method L0)[a].
experiment: log P by HPLC on reversed phase columns (Method L0); conditions: HPLC on reversed phase columns, Method L0
Lab note: record the figure alone, no unit after it.

Reference set (4 entries):
| compound | result |
| --- | --- |
| CN(CCO)c1c(C(=O)N[C@H]2CCOc3ccccc32)cnc2c(-c3cc(Cl)cc(Cl)c3)cccc12 [Example 138] | 2.7 |
| CCNc1c(C(=O)N[C@H]2CCOc3ccccc32)cnc2c(-c3cc(Cl)cc(Cl)c3)cccc12 [Example 153] | 2.1 |
| O=C(N[C@H]1CCc2ccccc21)c1cnc2c(-c3cc(Cl)cc(Cl)c3)cccc2c1N1CC[C@@H](O)C1 [Example 101] | 1.8 |
| O=C(N[C@H]1CCc2ccccc21)c1cnc2c(-c3cc(Cl)cc(Cl)c3)cccc2c1NCCO [Example 100] | 1.9 |

Please examine the following record next.
Asked: Please look up its logP (Method L0)[a]: CCN(CCOC)c1c(C(=O)N[C@H]2CCc3ccccc32)cnc2c(-c3cc(Cl)cc(Cl)c3)cccc12 [Example 90]
Given back: 4.9

----------
Let's look at some compounds and their measured mortality at 4 ppm.
tested on: Haemonchus contortus; settings: 120 h, read-out: activity (larval mortality)
Give the value in % but do not write % after it.

Asked: Look at this compound and give its reported mortality at 4 ppm. O=C(N[C@H]1CCOc2ccccc21)c1cnc2c(-c3cc(F)cc(Cl)c3)c(F)ccc2c1N1CCOCC1
Given back: 100

Asked: Give the measured mortality at 4 ppm of CN(C)c1c(C(=O)N[C@H]2CCOc3ccccc32)cnc2c(-c3cccc(Cl)c3Cl)c(F)ccc12 .
Given back: 100

Asked: I am curious: what mortality at 4 ppm value has been reported for CN(C)c1c(C(=O)N[C@H]2CCOc3ccccc32)cnc2c(-c3cccc(C(F)(F)F)c3F)cccc12 ?
Given back: 90

Asked: Recorded mortality at 4 ppm for COc1c(C(=O)N[C@H]2CCOc3ccccc32)cnc2c(-c3cc(Cl)cc(Cl)c3)cccc12 , please?
Given back: 100

----------
target: C. elegans Slo-1a (Caenorhabditis elegans); details: pE50 (negative decadic logarithm of EC50), CHO cells expressing C. elegans Slo-1a, voltage sensitive dye
Sequence (Q95V25 whole entry): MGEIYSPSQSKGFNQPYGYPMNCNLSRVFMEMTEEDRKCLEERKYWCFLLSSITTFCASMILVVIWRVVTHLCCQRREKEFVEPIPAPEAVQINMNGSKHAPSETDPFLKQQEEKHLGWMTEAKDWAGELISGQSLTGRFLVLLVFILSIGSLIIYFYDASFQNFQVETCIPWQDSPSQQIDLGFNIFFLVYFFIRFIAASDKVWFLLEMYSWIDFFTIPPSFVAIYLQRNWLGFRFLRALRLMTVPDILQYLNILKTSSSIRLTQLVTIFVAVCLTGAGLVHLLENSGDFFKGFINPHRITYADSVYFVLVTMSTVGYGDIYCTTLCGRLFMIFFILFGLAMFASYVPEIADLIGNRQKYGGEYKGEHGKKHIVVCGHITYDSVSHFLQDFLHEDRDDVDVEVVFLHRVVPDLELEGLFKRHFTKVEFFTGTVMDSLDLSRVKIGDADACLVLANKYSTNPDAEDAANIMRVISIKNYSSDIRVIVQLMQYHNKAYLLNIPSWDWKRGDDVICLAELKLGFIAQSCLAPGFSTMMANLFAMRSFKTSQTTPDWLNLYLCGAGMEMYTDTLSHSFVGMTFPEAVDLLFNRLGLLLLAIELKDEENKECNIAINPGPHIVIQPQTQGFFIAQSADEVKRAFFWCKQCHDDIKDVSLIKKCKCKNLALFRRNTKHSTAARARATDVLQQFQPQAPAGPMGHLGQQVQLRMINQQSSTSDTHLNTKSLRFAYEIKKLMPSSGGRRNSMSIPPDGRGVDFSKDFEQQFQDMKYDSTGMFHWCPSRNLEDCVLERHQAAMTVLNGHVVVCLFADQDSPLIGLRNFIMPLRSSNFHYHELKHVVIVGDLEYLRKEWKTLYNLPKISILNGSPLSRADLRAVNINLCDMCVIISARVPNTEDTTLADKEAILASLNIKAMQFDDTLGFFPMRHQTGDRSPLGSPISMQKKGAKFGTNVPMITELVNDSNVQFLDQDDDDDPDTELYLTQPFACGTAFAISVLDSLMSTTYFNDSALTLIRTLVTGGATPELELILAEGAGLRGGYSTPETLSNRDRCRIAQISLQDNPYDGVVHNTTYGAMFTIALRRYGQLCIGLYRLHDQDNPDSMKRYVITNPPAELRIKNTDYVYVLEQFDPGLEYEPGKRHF
pEC50: −log10 of the molar value.
Each entry below carries its recorded pEC50.

Below: 3 compounds and their reported pEC50.
| smiles_notation | outcome_measure | result |
| --- | --- | --- |
| O=C(N[C@H]1CCOc2ccccc21)c1cnc2c(-c3cc(Cl)cc(Cl)c3)cccc2c1Sc1ccccn1 | pEC50 | 5.30 to 6.50 |
| CNc1c(C(=O)N[C@H]2CCOc3ccccc32)cnc2c(-c3cc(Cl)cc(Cl)c3)cccc12 | pEC50 | > 8.50 |
| COCCOc1c(C(=O)N[C@H]2CCOc3ccccc32)cnc2c(-c3cc(Cl)cc(Cl)c3)cccc12 | pEC50 | > 8.50 |

Note: attention shifts to another entry.
Asked: Under C. elegans Slo-1a (Caenorhabditis elegans): pEC50 value of O=C(N[C@H]1CCOc2ccccc21)c1cnc2c(-c3sccc3Cl)cccc2c1N1CCOCC1 ?
Given back: > 8.50

----------
system: Haemonchus contortus; details: 120 h, read-out: activity (larval mortality)
outcome_measure: mortality at 20 ppm (%)
I only need the number, in %, no unit after it.

Sample records with mortality at 20 ppm:
| molecule | outcome_measure | result |
| --- | --- | --- |
| CCOc1c(C(=O)N[C@H]2CCc3ccccc32)cnc2c(-c3cc(Cl)cc(Cl)c3)cccc12 | mortality at 20 ppm | 100 |
| CN(C)c1c(C(=O)N[C@H]2CCOc3ccccc32)cnc2c(-c3cc(Cl)ccc3F)cccc12 | mortality at 20 ppm | 100 |
| CCOc1c(C(=O)N[C@H]2CCOc3ccccc32)cnc2c(-c3cc(Cl)cc(Cl)c3)cccc12 | mortality at 20 ppm | 80 |
| CC(C)c1c(C(=O)N[C@H]2CCOc3ccccc32)cnc2c(-c3cccc(C(F)(F)F)c3)cccc12 | mortality at 20 ppm | 100 |
| O=C(N[C@H]1CCOc2ccccc21)c1cnc2c(-c3cc(F)cc(F)c3F)cccc2c1C1COC1 | mortality at 20 ppm | 100 |

Now let's try a different one.
Asked: Record lookup: for Haemonchus contortus, what mortality at 20 ppm belongs to O=C(N[C@H]1CCOc2ccccc21)c1cnc2c(-c3cc(Cl)cc(Cl)c3)cccc2c1N1CC(F)(F)C1 ?
Given back: 80

----------
test: log P by HPLC on reversed phase columns (Method L0); details: HPLC on reversed phase columns, Method L0
outcome_measure: logP (Method L0)[a]
Write the value as a bare number.

Below, 4 molecules whose answers are already recorded.
| molecule | result |
| --- | --- |
| NC(=O)CNc1c(C(=O)N[C@H]2CCc3ccccc32)cnc2c(-c3cc(Cl)cc(Cl)c3)cccc12 [Example 129] | 1.8 |
| CN(C)CCNc1c(C(=O)N[C@H]2CCc3ccccc32)cnc2c(-c3cc(Cl)cc(Cl)c3)cccc12 [Example 88] | 1.3 |
| O=C(N[C@H]1CCc2ccccc21)c1cnc2c(-c3cc(Cl)cc(Cl)c3)cccc2c1N1CCC(F)(F)C1 [Example 112] | 2.6 |
| COC[C@@H]1CCCN1c1c(C(=O)N[C@H]2CCc3ccccc32)cnc2c(-c3cc(Cl)cc(Cl)c3)cccc12 [Example 91] | 2.9 |

Asked: Would you mind telling me what logP (Method L0)[a] value was observed for CN(CCN1CCOCC1)c1c(C(=O)N[C@H]2CCOc3ccccc32)cnc2c(-c3cc(Cl)cc(Cl)c3)cccc12 [Example 149] ?
Given back: 2.2

Asked: Quick one: logP (Method L0)[a] of COc1ccc2c(c1)[C@@H](NC(=O)c1cnc3c(-c4cc(Cl)cc(Cl)c4)cccc3c1N(C)C)CCO2 [Example 147] ?
Given back: 2.76

Asked: Recorded logP (Method L0)[a] of CN(CC1CC1)c1c(C(=O)N[C@H]2CCc3ccccc32)cnc2c(-c3cc(Cl)cc(Cl)c3)cccc12 [Example 106] , please.
Given back: 3.7

----------
Each entry below lists one item and its recorded EC50 value.
biological target: UniProt:Q95V25; conditions: pE50 (negative decadic logarithm of EC50), CHO cells expressing C. elegans Slo-1a, voltage sensitive dye

These recorded examples may help you get a feel for the data.
| compound | result |
| --- | --- |
| C=C(C)c1c(C(=O)N[C@H]2CCOc3ccccc32)cnc2c(-c3cc(Cl)cc(Cl)c3)cccc12 | 3.16 to 31.6 nM |
| CN(C)c1c(C(=O)N[C@H]2CCOc3ccccc32)cnc2c(-c3cc(F)c(F)c(F)c3)cccc12 | < 3.16 nM |
| CN(C)c1c(C(=O)N[C@H]2CCOc3ccccc32)cnc2c(-c3ncccc3F)cccc12 | 31.6 to 316 nM |
| O=C(N[C@H]1CCOc2ccccc21)c1cnc2c(-c3cc(Cl)sc3Cl)cccc2c1N1CCOCC1 | < 3.16 nM |
| O=C(N[C@H]1CCc2ccccc21)c1cnc2c(-c3cccc(Cl)c3)cccc2c1Cl | 3.16 to 31.6 nM |
| N#CCc1c(C(=O)N[C@H]2CCOc3ccccc32)cnc2c(-c3cc(Cl)cc(Cl)c3)cccc12 | < 3.16 nM |

Asked: Sample O=C(N[C@H]1CCOc2ccccc21)c1cnc2c(-c3cc(Cl)cc(Cl)c3)cccc2c1C1CCOCC1 — what was its EC50?
Given back: < 3.16 nM

Asked: Given CN(C)c1c(C(=O)NC2CSc3ccccc32)cnc2c(-c3cc(Cl)cc(Cl)c3)cccc12 (centres unmarked) , state its recorded EC50.
Given back: 3.16 to 31.6 nM

Asked: # lookup: EC50 of O=C(N[C@H]1CCOc2ccccc21)c1cnc2c(-c3c(F)cccc3F)c(F)ccc2c1N1CCOCC1
Given back: < 3.16 nM

Asked: Sample O=C(N[C@H]1CCc2ccccc21)c1cnc2c(-c3cc(Cl)cc(Cl)c3)cccc2c1N1CCC[C@@H]1C(=O)O — what was its EC50?
Given back: 31.6 to 316 nM
